pIC50 for Tyrosine-protein kinase JAK3 (Homo sapiens), merged from several publications.
pIC50: −log10 of the molar value.

Input line: Recorded pIC50 for Cc1cnc(Nc2ccc(N3CCC(O)CC3)cc2)nc1-c1ccc(C(=O)NCC#N)cc1 with Tyrosine-protein kinase JAK3 (Homo sapiens), please?
Output line: > 7.00

Input line: Recorded pIC50 for CCC(CC)n1cc(-c2nc(-c3cnn(CC(O)C(C)C)c3)cn3nccc23)cn1 (centres unmarked) with Tyrosine-protein kinase JAK3 (Homo sapiens), please?
Output line: 5.00 to 6.00

Input line: Recorded pIC50 for CN(c1ncnc2[nH]ccc12)[C@H]1C[C@@H](NS(=O)(=O)C2CN(C3CC3)C2)C1 with Tyrosine-protein kinase JAK3 (Homo sapiens), please?
Output line: < 5.00

Input line: Recorded pIC50 for CN(c1ncnc2[nH]ccc12)C1CC2(C1)CN(C(=O)c1cccc(C(F)(F)F)c1)C2 with Tyrosine-protein kinase JAK3 (Homo sapiens), please?
Output line: 5.00 to 6.00

Input line: Recorded pIC50 for C=CC(=O)N1CCC[C@@H](Nc2n[nH]c3nccc(Oc4ccc(-c5nc6ccccc6o5)cc4)c23)C1 with Tyrosine-protein kinase JAK3 (Homo sapiens), please?
Output line: 6.00 to 7.00

Input line: Recorded pIC50 for CN(c1ncnc2[nH]ccc12)N1CCCC(NC(=O)CC#N)C1 (centres unmarked) with Tyrosine-protein kinase JAK3 (Homo sapiens), please?
Output line: 6.00 to 7.00

Input line: Recorded pIC50 for CCC(=O)c1cnc(Nc2ccc(C3(N)CC3)cn2)cc1Nc1cccc(-c2ncn(C)n2)c1OC with Tyrosine-protein kinase JAK3 (Homo sapiens), please?
Output line: ≤ 6.30

Input line: Recorded pIC50 for CC[C@H](Cn1ccc2cnc(Nc3cnn(CC(=O)OC4COC4)c3)nc21)C(C)C with Tyrosine-protein kinase JAK3 (Homo sapiens), please?
Output line: > 7.00

###

pIC50 for Tyrosine-protein kinase JAK3 (Homo sapiens, UniProt P52333), merged from several publications.
pIC50: −log10 of the molar value.

Input line: Value lookup for pIC50; key = CN1CCc2cc(-c3cc4nccn4c(-c4cnn(C(CC#N)C5CC5)c4)n3)ccc2C1 (centres unmarked)
Output line: 6.00 to 7.00

Input line: Value lookup for pIC50; key = CCC(CC)Cn1ccc2cnc(Nc3cnn(CC(=O)OCCC#N)c3)nc21
Output line: > 7.00

Input line: Value lookup for pIC50; key = Cn1nccc1-c1cc2c(N[C@@H]3C[C@@H](O)[C@@H](O)C3(C)C)c(C(N)=O)cnn2c1 (racemic)
Output line: 8.25

Input line: Value lookup for pIC50; key = CC[C@H](Cn1ccc2cnc(Nc3cnn(CCC(=O)O)c3)nc21)C(C)C
Output line: > 7.00

Input line: Value lookup for pIC50; key = NC(=O)c1cnn2cc(-c3ccccc3)cc2c1NCC1(CO)CC1
Output line: 7.72

Input line: Value lookup for pIC50; key = CCCS(=O)(=O)N[C@H]1C[C@@H](Nc2c(-c3nccs3)cnc3[nH]ccc23)C1
Output line: 7.00 to 8.00

Input line: Value lookup for pIC50; key = N#CCC(C1CC1)n1cc(-c2nc(-c3cn[nH]c3)cc3nccn23)cn1 (centres unmarked)
Output line: < 6.00

Input line: Value lookup for pIC50; key = CCC(CC)n1cc(-c2nc(-c3cnn(CC(=O)NC(C)C)c3)cn3nccc23)cn1
Output line: 5.00 to 6.00
